Provide the reported IC50 of each item.
Target entity: Aurora2 (Homo sapiens)
Construct: Aurora2: whole recombinant protein comprising an N-terminal histidine tail; His tag (N)
Sequence (O14965 whole entry): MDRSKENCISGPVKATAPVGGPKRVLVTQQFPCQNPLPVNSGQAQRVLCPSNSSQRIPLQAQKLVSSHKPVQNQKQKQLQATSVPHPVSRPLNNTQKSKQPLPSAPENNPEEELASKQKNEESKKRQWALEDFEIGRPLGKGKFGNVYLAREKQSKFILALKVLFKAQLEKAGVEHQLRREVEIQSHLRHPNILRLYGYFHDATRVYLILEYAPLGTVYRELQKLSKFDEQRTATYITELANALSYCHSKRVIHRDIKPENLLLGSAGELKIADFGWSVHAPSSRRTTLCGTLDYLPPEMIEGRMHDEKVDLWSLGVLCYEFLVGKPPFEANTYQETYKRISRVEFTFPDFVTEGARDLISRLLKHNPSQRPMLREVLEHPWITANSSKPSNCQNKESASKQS
Procedure summary: Aurora2 enzymatic test, NuMA phosphorylation with [33P]ATP, Flashplate
Experimental context: whole recombinant protein, 1 μM ATP
Protocol: The inhibitory effect of compounds with respect to the kinases Aurora1 and Aurora2 is determined by means of an enzymatic test using radioactivity detection. The kinase activity of Aurora1 and Aurora2 is evaluated via the phosphorylation of the substrate Numa-histidine in the presence of radiolabelled ATP ([^33P]ATP) using 96-well Flashplate plates in which the nickel chelate is bound to the surface of the microplate. […]
Response body: numeric value in nM, unit text excluded.

Query CCN(CC)Cc1ccc(C(=O)Nc2n[nH]c3sc(C(=O)NN(C)c4ccc(Cl)cc4)cc23)cc1 [Example 15b] yields IC50 of 37

Query CN(NC(=O)c1cc2c(NC(=O)c3ccc(CN4CCNCC4)cc3)n[nH]c2s1)c1ccccc1 [Example 13a] yields IC50 of 23

Query CN(NC(=O)c1cc2c(NC(=O)c3cccc(CN4CCOCC4)c3)n[nH]c2s1)c1ccc(Cl)cc1 [Example 22b] yields IC50 of 762
